# Test system: green peach aphid (Myzus persicae)
# Assay Details: Myzus test (MYZUPE spray treatment)
# Type: in vivo
# Condition: 500 g/ha, Chinese cabbage discs, after 6 days
Reported Endpoint: efficacy (%)
Field: numeric (%). Do not append units.

Answered examples (3):
COc1nccnc1-n1nc(C(F)(F)F)c(-c2ccc(Cl)c(C(F)(F)F)c2)c1N [Ex. 18] = 90
C=C(C)c1nn(-c2nccnc2OC)c(N)c1-c1cc(Cl)cc(Cl)c1 [Ex. 167] = 100
COc1nccnc1-n1nc(C(F)(F)C(F)(F)C(F)(F)F)c(-c2cc(Cl)cc(C(F)(F)F)c2)c1N [Ex. 46] = 80

**Q:** What does the record list as efficacy for C=CCN(CC=C)c1c(-c2cc(Cl)cc(C(F)(F)F)c2)c(C(F)(F)F)nn1-c1nccnc1OC [Ex. 103] ?
**A:** 80

**Q:** What does the record list as efficacy for COc1nccnc1-n1nc(C(F)(F)Cl)c(-c2cc(Cl)cc(C(F)(F)F)c2)c1N [Ex. 17] ?
**A:** 100
